phosphorylation enrichment values for the sequences below.
- target under test: Jak2 (UniProt O60674)
- Sequence (O60674 whole entry, looked up): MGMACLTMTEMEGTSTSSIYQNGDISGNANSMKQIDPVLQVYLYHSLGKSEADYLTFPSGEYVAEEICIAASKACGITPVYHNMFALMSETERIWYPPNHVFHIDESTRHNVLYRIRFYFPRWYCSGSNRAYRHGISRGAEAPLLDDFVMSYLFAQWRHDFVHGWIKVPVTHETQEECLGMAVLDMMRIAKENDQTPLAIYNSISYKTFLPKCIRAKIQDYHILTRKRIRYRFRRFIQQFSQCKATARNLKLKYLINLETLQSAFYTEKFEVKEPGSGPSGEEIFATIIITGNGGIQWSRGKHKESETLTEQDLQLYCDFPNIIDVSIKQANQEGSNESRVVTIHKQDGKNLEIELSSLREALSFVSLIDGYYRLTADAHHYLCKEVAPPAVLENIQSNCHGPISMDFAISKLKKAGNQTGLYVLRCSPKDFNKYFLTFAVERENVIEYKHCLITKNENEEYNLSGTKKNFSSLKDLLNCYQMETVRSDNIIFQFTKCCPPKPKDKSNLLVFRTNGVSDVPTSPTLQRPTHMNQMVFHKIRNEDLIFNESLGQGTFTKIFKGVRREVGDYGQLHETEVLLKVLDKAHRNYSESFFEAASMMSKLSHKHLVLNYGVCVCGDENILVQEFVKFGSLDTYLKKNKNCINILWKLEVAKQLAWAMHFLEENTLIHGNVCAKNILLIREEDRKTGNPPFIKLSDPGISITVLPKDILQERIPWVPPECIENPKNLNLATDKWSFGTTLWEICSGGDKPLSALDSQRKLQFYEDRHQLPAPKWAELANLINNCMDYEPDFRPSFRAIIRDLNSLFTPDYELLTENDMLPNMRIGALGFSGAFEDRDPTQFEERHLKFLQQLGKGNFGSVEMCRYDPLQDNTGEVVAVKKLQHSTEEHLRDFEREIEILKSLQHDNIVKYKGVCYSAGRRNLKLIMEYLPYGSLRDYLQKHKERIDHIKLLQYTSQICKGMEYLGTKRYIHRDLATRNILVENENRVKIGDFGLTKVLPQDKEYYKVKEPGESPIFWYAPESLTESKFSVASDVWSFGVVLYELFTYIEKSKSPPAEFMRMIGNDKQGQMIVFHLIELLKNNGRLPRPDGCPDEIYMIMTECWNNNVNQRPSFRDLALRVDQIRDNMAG
- protocol notes: phosphorylation enrichment, bacterial display (enrichment ratio); higher = better substrate or ligand; peptides without Tyr show the background;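 note: 11-residue human phosphosite peptides and single-mutation variants displayed on the E. coli surface, counted by deep sequencing, each peptide's frequency after selection divided by its frequency in the unselected input library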;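 note: frequency after pTyr selection over input frequency; kinase dosed for 20-30% of maximal phosphorylation in three min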

# sequence code, phosphorylation enrichment
data = [
    ("EMTRNYIIFIE [BCO2_Y294_G289E]", 1.06),
    ("LWKWKYEELKE [CCDC102B_Y299]", 1.09),
    ("VDTRAYFTSAT [MT-CO1_Y304]", 0.525),
    ("CTTIHDNYMCN [TP53_Y234_Y234D]", 0.799),
    ("RDMMDYMPQGV [CYP21A2_Y259_L261P]", 0.986),
    ("FETSHYPASPD [CTNND2_Y1217_YF]", 0.553),
    ("EVDGLYREAPI [MYL12B_Y143_E141G]", 0.83),
]
